Taken from the NIST ThermoML archive (doi:10.1016/j.jct.2008.05.012).

# Run Parameters: Crystal; Heating/Cooling curves
Readout: Normal melting temperature (°C)

Examples with answers:
O=C1CCCO1 : -44.71
CCOC(=O)CC [ethyl propanoate] : -73.44

[I] [2H]C([2H])([2H])S(=O)C([2H])([2H])[2H] [(methyl sulfoxide)-d6]
[II] C1COCCO1
Exam item: Please state the entry with greater Normal melting temperature among I and II . Write down the label of the entry you select.
Marked response: I
(I: 20.2 °C, II: 11.33 °C)

###

# Run Parameters: Crystal; Heating/Cooling curves
Readout: Normal melting temperature (°C)

Worked examples, 5 compounds total:
C[N+](=O)[O-] [nitromethane] : -29.79
COCCOC [1,2-dimethoxyethane] : -69.74
CCC1COC(=O)O1 (configuration not stated) [1,2-butylene carbonate] : -52.81
CCCCCCCC[N+](C)(CCCCCCCC)CCCCCCCC.O=C([O-])C(F)(F)F [methyltrioctylammonium trifluoroacetate] : 12.47
CC#N [acetonitrile] : -44.08

[A] COC(=O)OC [dimethyl carbonate]
[B] CCOC(=O)OC [ethyl methyl carbonate]
[C] O=C1OCCO1 [ethylene carbonate]
[D] C[S+](C)[O-] [dimethyl sulfoxide]
[E] CCn1cc[n+](C)c1.O=S(=O)([O-])C(F)(F)F [1-ethyl-3-methylimidazolium trifluoromethanesulfonate]
Exam item: Falling order of Normal melting temperature, please. Answer by naming the labels in the order asked.
Marked response: C, D, A, E, B
(C: 35.38 °C, D: 17.80 °C, A: 3.91 °C, E: -10.92 °C, B: -55.01 °C)
